The measured values listed here are drawn from patent US20260248972A1.

# Procedure Details: in vivo
# Cond: BALB/c nude, mouse, in vivo, iv, total radioactivity, % ID/g Lung
Measurement Name: tissue uptake at 24 h

[
  {
    "Compound": "C[C@@H](O)[C@H](NC(=O)[C@@H]1CSSC[C@H](NC(=O)[C@@H](Cc2ccccc2)NC(=O)COCCOCCNC(=O)[C@H](CCCCNC(=O)c2cccc(NC(=O)N[C@@H]3CN(C4CCCCC4)c4ccccc4N(CC(=O)C(C)(C)C)C3=O)c2)NC(=O)CN2CCN(CC(=O)O)CCN(CC(=O)O)CCN(CC(=O)O)CC2)C(=O)N[C@@H](Cc2ccc(O)cc2)C(=O)N[C@H](Cc2c[nH]c3ccccc23)C(=O)N[C@@H](CCCCN)C(=O)N[C@@H]([C@@H](C)O)C(=O)N1)C(=O)O [Compound 177Lu-I-37, metal not drawn]",
    "Experimental Result": "1.38 %ID/g"
  }
]

Then there is this compound:
stdin: Fill in: tissue uptake at 24 h of C[C@@H](O)[C@H](NC(=O)[C@@H]1CSSC[C@H](NC(=O)[C@@H](Cc2ccccc2)NC(=O)COCCOCCNC(=O)COCCOCCNC(=O)[C@H](CCCCNC(=O)c2cccc(NC(=O)N[C@@H]3CN(C4CCCCC4)c4ccccc4N(CC(=O)C(C)(C)C)C3=O)c2)NC(=O)CN2CCN(CC(=O)O)CCN(CC(=O)O)CCN(CC(=O)O)CC2)C(=O)N[C@@H](Cc2ccc(O)cc2)C(=O)N[C@H](Cc2c[nH]c3ccccc23)C(=O)N[C@@H](CCCCN)C(=O)N[C@@H]([C@@H](C)O)C(=O)N1)C(=O)O [Compound 177Lu-I-39, metal not drawn] is ___
stdout: 1.85 %ID/g

---

# Procedure Details: in vivo
# Cond: BALB/c nude, mouse, in vivo, iv, total radioactivity, % ID/g Spleen
Measurement Name: tissue uptake at 4 h (%ID/g)
Give bare numbers, in %ID/g.

A selection of reference data follows.
[
  {
    "Compound": "C[C@@H](O)[C@H](NC(=O)[C@@H]1CSSC[C@H](NC(=O)[C@@H](Cc2ccccc2)NC(=O)CN2CCN(CC(=O)O)CCN(CC(=O)O)CCN(CC(=O)O)CC2)C(=O)N[C@@H](Cc2ccc(O)cc2)C(=O)N[C@H](Cc2c[nH]c3ccccc23)C(=O)N[C@@H](CCCCN)C(=O)N[C@@H]([C@@H](C)O)C(=O)N1)C(=O)O [^177Lu-C-1, metal not drawn, reference compound]",
    "Unit Label": "%ID/g",
    "Experimental Result": 0.08
  },
  {
    "Compound": "CC(C)(C)C(=O)CN1C(=O)[C@H](NC(=O)Nc2cccc(C(=O)N[C@@H](CCC(=O)N[C@@H](CCC(=O)N[C@@H](CCC(=O)N[C@@H](CCCCNC(=O)COCCOCCNC(=O)COCCOCCNC(=O)CCC(C(=O)O)N3CCN(CC(=O)O)CCN(CC(=O)O)CCN(CC(=O)O)CC3)C(N)=O)C(=O)O)C(=O)O)C(=O)O)c2)CN(C2CCCCC2)c2ccccc21 (stereo partly drawn) [^177Lu-C-4, metal not drawn, reference compound]",
    "Unit Label": "%ID/g",
    "Experimental Result": 0.06
  }
]

stdin: Fill in: tissue uptake at 4 h of C[C@@H](O)[C@H](NC(=O)[C@@H]1CSSC[C@H](NC(=O)[C@@H](Cc2ccccc2)NC(=O)[C@H](CCCCNC(=O)c2cccc(NC(=O)N[C@@H]3CN(C4CCCCC4)c4ccccc4N(CC(=O)C(C)(C)C)C3=O)c2)NC(=O)COCCOCCNC(=O)CN2CCN(CC(=O)O)CCN(CC(=O)O)CCN(CC(=O)O)CC2)C(=O)N[C@@H](Cc2ccc(O)cc2)C(=O)N[C@H](Cc2c[nH]c3ccccc23)C(=O)N[C@@H](CCCCN)C(=O)N[C@@H]([C@@H](C)O)C(=O)N1)C(=O)O [^177Lu-I-35, metal not drawn] is ___
stdout: 0.82

---

# Procedure Details: in vivo
# Cond: BALB/c nude, mouse, in vivo, iv, total radioactivity, % ID/g Intestine
Measurement Name: tissue uptake at 72 h
Number first, unit second: that is the form wanted.

[
  {
    "Compound": "C[C@@H](O)[C@H](NC(=O)[C@@H]1CSSC[C@H](NC(=O)[C@@H](Cc2ccccc2)NC(=O)COCCOCCNC(=O)[C@H](CCCCNC(=O)c2cccc(NC(=O)N[C@@H]3CN(C4CCCCC4)c4ccccc4N(CC(=O)C(C)(C)C)C3=O)c2)NC(=O)CN2CCN(CC(=O)O)CCN(CC(=O)O)CCN(CC(=O)O)CC2)C(=O)N[C@@H](Cc2ccc(O)cc2)C(=O)N[C@H](Cc2c[nH]c3ccccc23)C(=O)N[C@@H](CCCCN)C(=O)N[C@@H]([C@@H](C)O)C(=O)N1)C(=O)O [Compound 177Lu-I-37, metal not drawn]",
    "Experimental Result": "0.5 %ID/g"
  }
]

stdin: Fill in: tissue uptake at 72 h of C[C@@H](O)[C@H](NC(=O)[C@@H]1CSSC[C@H](NC(=O)[C@@H](Cc2ccccc2)NC(=O)[C@H](CCCCNC(=O)c2cccc(NC(=O)N[C@@H]3CN(C4CCCCC4)c4ccccc4N(CC(=O)C(C)(C)C)C3=O)c2)NC(=O)COCCOCCNC(=O)CN2CCN(CC(=O)O)CCN(CC(=O)O)CCN(CC(=O)O)CC2)C(=O)N[C@@H](Cc2ccc(O)cc2)C(=O)N[C@H](Cc2c[nH]c3ccccc23)C(=O)N[C@@H](CCCCN)C(=O)N[C@@H]([C@@H](C)O)C(=O)N1)C(=O)O [^177Lu-I-35, metal not drawn] is ___
stdout: 0.72 %ID/g

---

# Procedure Details: in vivo
# Cond: BALB/c nude, mouse, in vivo, iv, total radioactivity, % ID/g Femur
With a cut-off of 0.4 %ID/g, any tissue uptake at 24 h strictly below it is called satisfied; any tissue uptake at 24 h meeting it or above is called not satisfied.

[
  {
    "Molecule": "C[C@@H](O)[C@H](NC(=O)[C@@H]1CSSC[C@H](NC(=O)[C@@H](Cc2ccccc2)NC(=O)COCCOCCNC(=O)[C@H](CCCCNC(=O)c2cccc(NC(=O)N[C@@H]3CN(C4CCCCC4)c4ccccc4N(CC(=O)C(C)(C)C)C3=O)c2)NC(=O)CN2CCN(CC(=O)O)CCN(CC(=O)O)CCN(CC(=O)O)CC2)C(=O)N[C@@H](Cc2ccc(O)cc2)C(=O)N[C@H](Cc2c[nH]c3ccccc23)C(=O)N[C@@H](CCCCN)C(=O)N[C@@H]([C@@H](C)O)C(=O)N1)C(=O)O [Compound 177Lu-I-37, metal not drawn]",
    "Classification": "satisfied"
  },
  {
    "Molecule": "C[C@@H](O)[C@H](NC(=O)[C@@H]1CSSC[C@H](NC(=O)[C@@H](Cc2ccccc2)NC(=O)[C@H](CCCCNC(=O)c2cccc(NC(=O)N[C@@H]3CN(C4CCCCC4)c4ccccc4N(CC(=O)C(C)(C)C)C3=O)c2)NC(=O)COCCOCCNC(=O)CN2CCN(CC(=O)O)CCN(CC(=O)O)CCN(CC(=O)O)CC2)C(=O)N[C@@H](Cc2ccc(O)cc2)C(=O)N[C@H](Cc2c[nH]c3ccccc23)C(=O)N[C@@H](CCCCN)C(=O)N[C@@H]([C@@H](C)O)C(=O)N1)C(=O)O [^177Lu-I-35, metal not drawn]",
    "Classification": "not satisfied"
  },
  {
    "Molecule": "C[C@@H](O)[C@H](NC(=O)[C@@H]1CSSC[C@H](NC(=O)[C@@H](Cc2ccccc2)NC(=O)COCCOCCNC(=O)COCCOCCNC(=O)[C@H](CCCCNC(=O)c2cccc(NC(=O)N[C@@H]3CN(C4CCCCC4)c4ccccc4N(CC(=O)C(C)(C)C)C3=O)c2)NC(=O)CN2CCN(CC(=O)O)CCN(CC(=O)O)CCN(CC(=O)O)CC2)C(=O)N[C@@H](Cc2ccc(O)cc2)C(=O)N[C@H](Cc2c[nH]c3ccccc23)C(=O)N[C@@H](CCCCN)C(=O)N[C@@H]([C@@H](C)O)C(=O)N1)C(=O)O [Compound 177Lu-I-39, metal not drawn]",
    "Classification": "not satisfied"
  },
  {
    "Molecule": "C[C@@H](O)[C@H](NC(=O)[C@@H]1CSSC[C@H](NC(=O)[C@@H](Cc2ccccc2)NC(=O)CN2CCN(CC(=O)O)CCN(CC(=O)O)CCN(CC(=O)O)CC2)C(=O)N[C@@H](Cc2ccc(O)cc2)C(=O)N[C@H](Cc2c[nH]c3ccccc23)C(=O)N[C@@H](CCCCN)C(=O)N[C@@H]([C@@H](C)O)C(=O)N1)C(=O)O [^177Lu-C-1, metal not drawn, reference compound]",
    "Classification": "satisfied"
  },
  {
    "Molecule": "C[C@@H](O)[C@H](NC(=O)[C@@H]1CSSC[C@H](NC(=O)[C@@H](Cc2ccccc2)NC(=O)[C@H](CCCCNC(=O)COCCOCCNC(=O)c2cccc(NC(=O)N[C@@H]3CN(C4CCCCC4)c4ccccc4N(CC(=O)C(C)(C)C)C3=O)c2)NC(=O)CN2CCN(CC(=O)O)CCN(CC(=O)O)CCN(CC(=O)O)CC2)C(=O)N[C@@H](Cc2ccc(O)cc2)C(=O)N[C@H](Cc2c[nH]c3ccccc23)C(=O)N[C@@H](CCCCN)C(=O)N[C@@H]([C@@H](C)O)C(=O)N1)C(=O)O [^177Lu-I-36, metal not drawn]",
    "Classification": "not satisfied"
  }
]

stdin: Criterion: tissue uptake at 24 h strictly below 0.4 %ID/g. Is it met by CC(C)(C)C(=O)CN1C(=O)[C@H](NC(=O)Nc2cccc(C(=O)N[C@@H](CCC(=O)N[C@@H](CCC(=O)N[C@@H](CCC(=O)N[C@@H](CCCCNC(=O)COCCOCCNC(=O)COCCOCCNC(=O)CCC(C(=O)O)N3CCN(CC(=O)O)CCN(CC(=O)O)CCN(CC(=O)O)CC3)C(N)=O)C(=O)O)C(=O)O)C(=O)O)c2)CN(C2CCCCC2)c2ccccc21 (stereo partly shown) [^177Lu-C-4, metal not drawn, reference compound] ?
stdout: satisfied

stdin: Criterion: tissue uptake at 24 h strictly below 0.4 %ID/g. Is it met by CCCC[C@H](NC(=O)[C@H](Cc1c[nH]c2ccccc12)NC(=O)CNC(=O)[C@H](Cc1ccc(O)cc1)NC(=O)[C@H](C)NC(=O)[C@@H](CCC(=O)O)NC(=O)[C@@H](CCC(=O)O)NC(=O)[C@@H](CCC(=O)O)NC(=O)[C@@H](CCC(=O)O)NC(=O)[C@@H](CCC(=O)O)NC(=O)[C@@H](CCC(=O)O)NC(=O)CN1CCN(CC(=O)O)CCN(CC(=O)O)CCN(CC(=O)O)CC1)C(=O)N[C@@H](CC(=O)O)C(=O)N[C@@H](Cc1ccccc1)C(N)=O [^177Lu-C-2, metal not drawn, reference compound] ?
stdout: satisfied
